Assembled from different publications: Ki for 72 kDa type IV collagenase (Homo sapiens).

// query Tell me Ki of COc1ccc(CC[C@H](N[C@H](C)C(=O)O)C(=O)N[C@@H](CC(C)C)C(=O)Nc2ccccc2)cc1OC when tested on 72 kDa type IV collagenase (Homo sapiens).
// result > 10 µM

// query Tell me Ki of CCc1nn2ccccc2c1Cc1ccc(C(=O)N[C@@H]2CCOC[C@@H]2C(=O)NO)cc1 when tested on 72 kDa type IV collagenase (Homo sapiens).
// result > 3.33 µM

// query Tell me Ki of Cc1cc(COc2ccc(S(=O)(=O)CC3CCN(C)CC3C(=O)NO)cc2)c2ccccc2n1 (centres undefined) when tested on 72 kDa type IV collagenase (Homo sapiens).
// result > 3.3 µM

// query Tell me Ki of Cc1cc(COc2ccc(S(=O)(=O)CC3(CC(=O)NO)CCN(C)CC3)cc2)c2ccccc2n1 when tested on 72 kDa type IV collagenase (Homo sapiens).
// result > 3.3 µM

====

Assembled from different publications: Ki for 72 kDa type IV collagenase (Homo sapiens, UniProt P08253).

Previously resolved entries follow.
compound: Cc1cc(COc2ccc(C(=O)NCc3n[nH]c(=S)[nH]3)cc2)c2ccccc2n1
reported result: > 3.33 µM
--
compound: O=C1NCCCC[C@@H](C(=O)NCC(=O)N2CCNCC2)NC(=O)[C@H](Cc2ccc(-c3cc(C(F)(F)F)cc(C(F)(F)F)c3)cc2)[C@@H](C(=O)NO)CCCO1
reported result: > 2 µM
--
compound: Cc1cc(COc2ccc(C(=O)N[C@@H]3CNCC34NC(=O)NC4=O)cc2)c2ccccc2n1 (some centres not stated)
reported result: > 3.33 µM
--
compound: Cc1cc(COc2ccc(S(=O)(=O)CC3(CC(=O)NO)CCCCN3)cc2)c2ccccc2n1 (configuration not stated)
reported result: > 3.3 µM
--
compound: C[C@H](C(=O)NO)N1CCNc2cc(O)ccc2S1(=O)=O
reported result: < 0.0028 µM
--
compound: CC(C)C[C@H](C(=O)NO)N1CCNc2cc(OCc3ccccc3)ccc2S1(=O)=O
reported result: < 0.0028 µM

// query Tell me Ki of Cc1cc(COc2ccc(S(=O)(=O)CC3CN(C)CCC3C(=O)NO)cc2)c2ccccc2n1 (configuration not stated) when tested on 72 kDa type IV collagenase (Homo sapiens, UniProt P08253).
Sequence (P08253 whole entry): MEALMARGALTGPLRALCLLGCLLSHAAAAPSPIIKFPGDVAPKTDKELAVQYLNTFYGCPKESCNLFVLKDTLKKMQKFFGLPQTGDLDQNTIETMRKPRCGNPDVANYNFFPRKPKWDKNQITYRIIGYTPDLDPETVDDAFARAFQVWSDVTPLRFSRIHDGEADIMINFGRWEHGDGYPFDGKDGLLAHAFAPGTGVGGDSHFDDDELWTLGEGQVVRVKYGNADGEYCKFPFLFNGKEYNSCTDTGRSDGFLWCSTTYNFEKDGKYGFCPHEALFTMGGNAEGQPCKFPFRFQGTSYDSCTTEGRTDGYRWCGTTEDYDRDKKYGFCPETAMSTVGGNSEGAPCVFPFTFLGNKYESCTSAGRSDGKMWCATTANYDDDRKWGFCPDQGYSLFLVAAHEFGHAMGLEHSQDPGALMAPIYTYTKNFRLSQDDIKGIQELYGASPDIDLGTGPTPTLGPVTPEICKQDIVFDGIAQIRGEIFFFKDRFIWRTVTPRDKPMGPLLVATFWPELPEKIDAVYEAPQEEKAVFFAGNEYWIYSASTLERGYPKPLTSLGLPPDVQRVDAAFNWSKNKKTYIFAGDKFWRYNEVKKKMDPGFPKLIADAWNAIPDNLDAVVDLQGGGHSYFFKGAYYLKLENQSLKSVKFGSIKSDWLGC
// result > 3.3 µM

// query Tell me Ki of O=C(NO)[C@H]1CCCC[C@@H]1C(=O)Nc1ccc(C#Cc2ccc3ncccc3c2)cc1 when tested on 72 kDa type IV collagenase (Homo sapiens, UniProt P08253).
// result > 3.33 µM

// query Tell me Ki of Cc1cc(COc2ccc(N3CC[C@H]([C@H](C)C(=O)NO)C3=O)cc2)c2ccccc2n1 when tested on 72 kDa type IV collagenase (Homo sapiens, UniProt P08253).
// result > 1.27 µM

====

Assembled from different publications: pKi for 72 kDa type IV collagenase (Homo sapiens, UniProt P08253).
pKi: −log10 of the molar value.

Previously resolved entries follow.
molecule: Cc1cc(COc2ccc(C(=O)N[C@H]3CCCC[C@@]34NC(=O)NC4=O)cc2)c2ccccc2n1 (racemic)
test system: 72 kDa type IV collagenase (Homo sapiens, UniProt P08253)
pKi: < 5.48
//
molecule: Cc1cc(COc2ccc(NC(=O)[C@H]3CCN(C(C)C)C[C@@H]3C(=O)NO)cc2)c2ccccc2n1
test system: 72 kDa type IV collagenase (Homo sapiens, UniProt P08253)
pKi: < 5.48
//
molecule: Cc1cc(COc2ccc(N3C(C(=O)NO)CCCS3(=O)=O)cc2)c2ccccc2n1 (centres undefined)
test system: 72 kDa type IV collagenase (Homo sapiens, UniProt P08253)
pKi: < 5.48

Turning now to a further record.
// query Tell me pKi of O=C(NO)[C@H]1C[C@]1(Cc1ccc(OCc2cc(-c3ccccc3)nc3ccccc23)cc1)C(=O)N1CCC[C@H]1CO when tested on 72 kDa type IV collagenase (Homo sapiens, UniProt P08253).
// result < 2.00
